Values compiled from paper PMC9482650.

Biological target: DLG4_1, P78352
Sequence (P78352 62-152): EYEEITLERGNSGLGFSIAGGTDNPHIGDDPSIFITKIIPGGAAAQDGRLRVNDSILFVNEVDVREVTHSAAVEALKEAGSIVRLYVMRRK
Test: holdup assay
Design: key: below the threshold = too weak to quantify, mostly under pKd 3.1 to 4
Conditions: plain residues with an end cap or a label only (N-terminal biotin on a linker: ado-ado)
Readout Type: pKd

Here is how some binders turned out for pKd.
# Binder, Readout Type, Observed Value
data = [
    ("DRIQSCLSDA [SBF1, O95248]", "pKd", "below the threshold"),
    ("RFQQRMQTHV [KIRREL1, Q96J84]", "pKd", 4.32),
    ("SRSVVESDEL [MYPN, Q86TC9]", "pKd", "below the threshold"),
    ("DFLSTFHIRI [CIB2, O75838]", "pKd", "below the threshold"),
    ("ILRKSTTTTV [PRR16, Q569H4]", "pKd", 4.78),
]

What measured pKd goes with GEDRSPPTAL [MKNK1, Q9BUB5] ?
below the threshold

What measured pKd goes with LPAVCYDIDI [PTTG2, Q9NZH5] ?
below the threshold

What measured pKd goes with SPDRDRESIV [SCN5A, Q14524] ?
4.46

What measured pKd goes with LAHVKHKEQI [AQP3, Q92482] ?
below the threshold
